# System: Huh-7 cells containing the self-replicating, subgenomic HCV replicon
# Measurement protocol: HCV replicon assay (luciferase reporter, 72 h)
# Format: cell-based
# Assay conditions: Hepatitis C virus, Huh-7, 72 h, read-out: HCV Replicon Activity (EC50)
In this section, each of the molecules is paired with its reported EC50.

Reference set, count: 2
Molecule	EC50
COC(=O)[C@H](C)NP(=O)(Oc1ccccc1)O[C@@H](C)[C@H]1O[C@@H](n2cnc3c(N)ncnc32)[C@](C)(O)[C@@H]1O (stereo partly drawn)	< 1000 µM
Cc1ccc(OP(=O)(N[C@@H](C)C(=O)OC2CCCCC2)O[C@@H](C)[C@H]2O[C@@H](n3cnc4c(N)ncnc43)[C@H](O)[C@@H]2O)cc1 (stereo partly drawn)	< 1 µM

// next item, EC50 requested
Given the molecule C[C@H](NP(=O)(Oc1cccc2ccccc12)O[C@@H](C)[C@H]1O[C@@H](n2cnc3c(N)ncnc32)[C@H](O)[C@@H]1O)C(=O)OC1CCCCC1 (stereo partly drawn) , what is its reported EC50? < 1 µM

---

In this section, each of the compounds is paired with its reported pEC50.
# System: Huh-7 cells containing the self-replicating, subgenomic HCV replicon
# Measurement protocol: HCV replicon assay (luciferase reporter, 72 h)
# Type: cell-based
# Assay conditions: Hepatitis C virus, Huh-7, 72 h, read-out: HCV Replicon Activity (EC50)
pEC50: −log10 of the molar value.

Query pEC50 on Huh-7 cells containing the self-replicating, subgenomic HCV replicon for COC(=O)C(C)NP(=O)(Oc1ccccc1)OC(C)[C@H]1O[C@@H](n2ccc(=O)[nH]c2=O)C(F)(F)C1O (stereo in doubt) [D4] > 4.52

Query pEC50 on Huh-7 cells containing the self-replicating, subgenomic HCV replicon for C[C@H](NP(=O)(Oc1cccc2ccccc12)O[C@@H](C)[C@H]1O[C@@H](n2cnc3c(N)ncnc32)[C@@H]2OC(=O)O[C@@H]21)C(=O)OC1CCCCC1 (stereo partly drawn) [A3] > 6.00

Query pEC50 on Huh-7 cells containing the self-replicating, subgenomic HCV replicon for C[C@H](NP(=O)(Oc1cccnc1)O[C@@H](C)[C@H]1O[C@@H](n2cnc3c(N)ncnc32)[C@H](O)[C@@H]1O)C(=O)OC1CCCCC1 (stereo partly drawn) [A36] > 4.52

---

# Test system: Huh-7 cells containing the self-replicating, subgenomic HCV replicon
# Measurement protocol: HCV replicon assay (luciferase reporter, 72 h)
# Assay type: cell-based
# Assay conditions: Hepatitis C virus, Huh-7, 72 h, read-out: HCV Replicon Activity (EC50)
pEC50: −log10 of the molar value.
In this section, each of the molecules is paired with its reported pEC50.

Reference set, count: 10
Molecule	Result
COC(=O)[C@H](C)NP(=O)(Oc1ccccc1)O[C@@H](C)[C@H]1O[C@@H](n2cnc3c(N)ncnc32)[C@@H]2OC(=O)O[C@@H]21 (stereo partly drawn) [A16]	> 4.52
COC(=O)Nc1ncnc2c1ncn2[C@@H]1O[C@H]([C@H](C)OP(=O)(N[C@@H](C)C(=O)OC2CCCCC2)Oc2cccc3ccccc23)[C@H]2OC(=O)O[C@H]21 (stereo partly drawn) [A5]	> 4.52
CCC[C@H](NP(=O)(Oc1ccccc1)O[C@@H](C)[C@H]1O[C@@H](n2cnc3c(N)ncnc32)[C@H](O)[C@@H]1O)C(=O)OC1CCCCC1 (stereo partly drawn) [A38]	> 6.00
CC(C)OC(=O)[C@H](C)NP(=O)(Oc1ccccc1)O[C@@H](C)[C@H]1O[C@@H](n2cnc3c(N)ncnc32)[C@@H]2OC(=O)O[C@@H]21 (stereo partly drawn) [A9]	> 6.00
CCC(=O)O[C@H]1[C@@H](OC(=O)CC)[C@H](n2cnc3c(N)ncnc32)O[C@@H]1[C@H](C)OP(=O)(N[C@@H](C)C(=O)OC(C)C)Oc1ccccc1 (stereo partly drawn) [A14]	> 6.00
CC(C)OC(=O)[C@H](C)NP(=O)(Oc1ccccc1)O[C@@H]([C@H]1O[C@@H](n2cnc3c(N)ncnc32)[C@H](O)[C@@H]1O)C(F)(F)F (stereo partly drawn) [A27]	> 4.52
C[C@H](NP(=O)(Oc1cccc2ccccc12)O[C@@H](C)[C@H]1O[C@@H](n2cnc3c(N)ncnc32)[C@@H]2OC(=O)O[C@@H]21)C(=O)OCC(C)(C)C (stereo partly drawn) [A4]	> 6.00
COC(=O)[C@H](C)NP(=O)(Oc1ccccc1)O[C@@H](C)[C@H]1O[C@@H](n2ccc(N)nc2=O)C(F)(F)[C@@H]1O (mixture of isomers) [C5]	> 6.00
COC(=O)[C@H](C)NP(=O)(Oc1ccccc1)O[C@@H](C)[C@H]1O[C@@H](n2cnc3c(N)ncnc32)[C@H](O)[C@@H]1O (stereo partly drawn) [A15]	> 4.52
CC(C)OC(=O)[C@H](C)NP(=O)(Oc1ccccc1)O[C@@H](C)[C@H]1O[C@@H](n2cnc3c(N)nc(N)nc32)[C@H](O)[C@@H]1O (stereo partly drawn) [E1]	> 4.52

Given the molecule C[C@H](N[P@](=O)(Oc1ccccc1)O[C@@H](C)[C@H]1O[C@@H](n2cnc3c(N)ncnc32)[C@H](O)[C@@H]1O)C(=O)OC1CCCCC1 [A10b] , what is its reported pEC50? > 6.00

Given the molecule COC(=O)[C@H](C)NP(=O)(Oc1ccccc1)O[C@@H](C)[C@H]1O[C@@H](n2ccc(=O)[nH]c2=O)[C@@H](O)[C@@H]1O (stereo partly drawn) [D2] , what is its reported pEC50? > 3.00

Data credit: patent US20120070411A1
